Values from PubChem BioAssay

assayName: growth effects on S. cerevisiae YJM789 – YJM789 clinical isolate, OD600, 24 h, basal, primary screen (AID 1089);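 further: growth of clinical yeast isolate S. cerevisiae YJM 789 seeded 1000 cells per well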
conditions: higher = more signal, called active from +8 up or from −8 down
Active and inactive are the calls of the source.

molecule	z-score
C[N+](C)(C)CCCCNC(=O)[C@H]1C[C@H]2C(=O)N[C@@H](Cc3ccccc3)C(=O)N2[C@H]1c1cccc(OCCO)c1	-0.0304 (inactive)
CCOC(=O)c1cn(C[C@H](Cc2ccccc2)NC(=O)N[C@H](CO)CCc2oc(C(C)=O)c(C(=O)OC)c2C(=O)OC)nn1	0.511 (inactive)
Cc1ccc(S[C@]2(C(=O)NCC(F)(F)F)CC(=O)N(Cc3ccccc3C(F)(F)F)[C@@H]2c2ccc(CO)cc2)cc1	-0.837 (inactive)
COCCOC(=O)N1C(=O)[C@@]2(c3cc(C#CCC(C(=O)OC)C(=O)OC)ccc31)[C@H](C(N)=O)[C@H]1C(=O)O[C@H](c3ccccc3)[C@H](c3ccccc3)N1[C@@H]2c1ccc(O)cc1	2.77 (inactive)
CCCCCC1=C2CNC(Cc3ccccc3)(C(=O)OC)C=C2C(C)C1=O (centres undefined)	0.194 (inactive)
CC(C)(C)N1CC=CC23O[C@@H]4/C=C\CCCOC(=O)C4[C@H]2C(=O)N(CCCO)[C@@H]3C1=O (some centres undefined)	-1.01 (inactive)
CCOC(=O)C[C@H]1[C@H](OC(=O)c2cc3ccccc3oc2=O)[C@@H](NC(=O)CC(C)C)c2cc(OCCCO)ccc2N1C(=O)Cc1ccc(OC)cc1	-0.238 (inactive)
O=C1N(Cc2ccccc2)c2ccccc2C[C@@]12COC(c1ccc(OCCCO)cc1)=N2	-0.91 (inactive)
COc1ccc([Si](C)(C)[C@H]2[C@H](CC(=O)N3Cc4ccccc4C[C@H]3CO)O[C@@]3(C(=O)N(C)c4c(Br)cc(C)cc43)[C@@H]2C)cc1	0.344 (inactive)
C[C@@H]1ON(c2ccc(I)cc2)[C@H](c2cccc(NC(=O)OCC3c4ccccc4-c4ccccc43)c2)[C@H]1C(=O)N1C(=O)OC[C@H]1Cc1ccccc1	0.882 (inactive)
O=C1C2C=CC(C(O)c3c(F)cccc3Cl)N(Nc3ccc([N+](=O)[O-])cc3)C2C(=O)N1c1ccccc1 (centres undefined)	-1.01 (inactive)
CC(=O)NCCCC[C@@H]1NC(=O)[C@H]2C[C@@H](C(=O)NCCCCCCNC(=O)CS)[C@@H](c3cccc(OCCO)c3)N2C1=O	0.828 (inactive)
CCOC(=O)C[C@H]1[C@H](OC(=O)c2ccccc2-c2ccccc2)[C@@H](NC(=O)C2CCCCC2)c2cc(OCCCO)ccc2N1C(=O)c1ccc2ccccc2n1	0.362 (inactive)
COc1ccccc1CN1C(=O)c2ccccc2[C@](Cc2ccccc2I)(C(=O)NCC(C)C)[C@@H]1c1ccc(CO)cc1	-0.747 (inactive)

====

composite z-score for assorted compounds
Test system: XIP peptide (Xip251-270)
assayName: compounds binding XIP fragment 251-270 – biochemical, small-molecule microarray, fluorescence 635/667 nm, 0.5 µg/mL protein, primary screen (AID 1183)
conditions: fluorescence 635 nm, higher = more signal
propertyName: composite z-score

                                   compound            targetorsystem  result
0  COc1ccc([Si](C)(C)[C@H]2[C@H](CCO)O[C@@]3(C(=O)N(Cc4ccc(NC(=O)[C@H](C)O)cc4)c4ccccc43)[C@@H]2C)cc1  XIP peptide (Xip251-270)   0.596
1  COc1ccc([Si](C)(C)[C@H]2[C@H](CC(=O)N3CCC[C@H]3CO)O[C@@]3(C(=O)N(Cc4ccc(N5CCCCC5=O)cc4)c4ccccc43)[C@@H]2C)cc1  XIP peptide (Xip251-270)   0.753
2  CC1CC/C=C\[C@H]2OC34C=CCN(c5ccc(Cl)cc5)C(=O)[C@H]3N(CCCCCCO)C(=O)[C@]4(C)C2C(=O)O1 (stereo partly drawn)  XIP peptide (Xip251-270)   0.265

====

assayName: probe aLAP1 signal on lysate-treated microarray – cell lysate, small-molecule microarray, COS7 lysate, primary screen (AID 1124);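 further: lysate comes from COS7 cells expressing LAP1 and is applied at 0.3 µg/mL; score merges spot fluorescence near 667 nm with signal-to-noise over triplicate slides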
conditions: probe aLAP1, fluorescence, higher = more signal

smilesInput	composite z-score
CC(C)C[C@@H]1NC(=O)[C@@H]2C[C@H](C(=O)NCCCCCCNC(=O)CS)[C@H](c3cccc(OCCO)c3)N2C1=O	0.252
CC(C)N1C(=O)c2ccccc2[C@@H](C(=O)NCC(F)(F)F)[C@@H]1c1ccc(CO)cc1	-0.282
O=C(NC1CC1)[C@@H]1c2ccccc2C(=O)N(CC23CC4CC(CC(C4)C2)C3)[C@H]1c1ccc(CO)cc1	0.99
NC(=O)NCC#Cc1ccc2c(c1)[C@]1(C(=O)N2)[C@H](c2ccc(OCCO)cc2)N2[C@H](c3ccccc3)[C@H](c3ccccc3)OC(=O)[C@H]2[C@@H]1C(=O)NC[C@H](O)c1ccccc1	-0.146
COCCOC(=O)N1C(=O)[C@@]2(c3cc(C#CCCO)ccc31)[C@H](c1ccc(OCCO)cc1)N1[C@H](c3ccccc3)[C@H](c3ccccc3)OC(=O)[C@H]1[C@@H]2C(=O)N1CCCCCCC1	1.95
CCCCC(=C=CC[C@H](O)c1ccc(CO)o1)CCO	-0.311
CCCC=C(CCC)[C@@H](NC(=O)OCC(C)C)c1ccc(C(=O)OC)cc1	0.35

====

assayName: binders of probe aHhip on microarray, primary screen, stem cell growth factor project, biochemical, small-molecule microarray, fluorescence 635/667 (AID 1087);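 further: score merges spot fluorescence at 667nm with spot signal to noise ratio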
conditions: higher = more signal

molecule	composite z-score
CCOC(=O)C[C@H]1[C@H](OC(=O)c2cc3ccccc3oc2=O)[C@@H](NC(=O)CC(C)C)c2cc(OCCCO)ccc2N1C(=O)Cc1ccc(OC)cc1	-0.201
C=C(C)[C@@H]1CC=C(C(O)C2C=CC3C(=O)N(C)C(=O)C3N2Nc2ccc([N+](=O)[O-])cc2[N+](=O)[O-])CC1 (some centres undefined)	-0.0003
CN1C(=O)[C@@H]2[C@@H](CC(COc3ccccc3)=C3[C@@H](CCc4ccccc4)OB(O)C[C@@H]32)C1=O	-0.0994
C=C(COC)/C(=C/C[C@@H](OC(C)=O)c1ccccc1OCCO)c1cnc2ccccc2c1	-0.169
O=C(NC1CC1)[C@@H]1c2ccccc2C(=O)N(Cc2cc(C(F)(F)F)cc(C(F)(F)F)c2)[C@H]1c1ccc(CO)cc1	-0.863
COc1cc(CO)cc(I)c1O[C@H]1C=C(C(=O)NCCO)C[C@@H](NC2CCCCCC2)[C@@H]1O	-0.0994
C=CCOC(=O)[C@H]1[C@@H]2C(=O)O[C@@H](c3ccccc3)[C@@H](c3ccccc3)N2[C@@H](c2ccc(OCCOC(=O)[C@@H]3C[C@@H]4C(=O)N[C@@H](CCCCNC(C)=O)C(=O)N4[C@@H]3c3cccc(OCCO)c3)cc2)[C@]12C(=O)Nc1ccccc12	-0.0994
C=CCN1Cc2ccccc2[C@H]2OC(c3ccc(OCCCO)cc3)=N[C@@]2(CCS(=O)(=O)c2ccccc2)C1=O	-0.226
CCOC(=O)C1=CC[C@@H](c2ccc(OC)cc2)N(S(=O)(=O)c2ccc(C)cc2)[C@H]1c1ccc(C)cc1	-0.0618
CCCC#C[Si](O[C@H](CC)c1cn(Cc2ccccc2)nn1)(C(C)C)C(C)C	-0.166
[N-]=[N+]=Nc1ccccc1[C@@H]1OC(c2ccc(OCCCO)cc2)=N[C@]1(Cc1ccccc1)C(=O)NCCN1CCOCC1	0.24
COC(=O)[C@@]1(Cc2ccccc2)[C@H]2c3cc(C(=O)N(C)C)n(Cc4ccc(S(C)(=O)=O)cc4)c3C[C@H]2CN1C(=O)c1ccccc1	-0.118
O=C(NC1CC1)[C@@H]1c2ccccc2C(=O)N(Cc2ccc(OC(F)(F)F)cc2)[C@H]1c1ccc(CO)cc1	-0.0994
CCCN1C(=O)[C@]2(CCC(=O)OC(C)(C)C)N=C(c3ccc(OCCCO)cc3)O[C@@H]2c2ccccc21	-0.0645
C=CCN1C(=O)[C@@]2(O[C@@H](CCn3cc([C@H](O)c4ccccc4)nn3)[C@H]([Si](C)(C)c3ccc(OC)cc3)[C@H]2C)c2cc(N3C(=O)c4cccc5cccc3c45)ccc21	-0.271
O=C1O[C@H](c2ccccc2)[C@H](c2ccccc2)N2[C@H]1[C@@H](C(=O)N1CCN(c3ncccn3)CC1)[C@]1(C(=O)Nc3ccc(C#CCCO)cc31)[C@H]2c1ccc(O)cc1	0.0373
CN(C)CCCC[C@@H]1NC(=O)[C@H]2C[C@@H](C(=O)O)[C@@H](c3ccc(O)cc3)N2C1=O	1.38
CC(C)=C1C(=O)C(c2ccccc2)=C2CN3C(=O)N(CCc4ccccc4)C(=O)[C@]3(C)[C@H]21	-0.0346
N#Cc1ccc(-c2cccc(=O)o2)cc1	-0.166
C=C(CCCC)/C(=C/C[C@H](OC(C)=O)c1cccc(OCCO)c1)c1cnc2ccccc2c1	-0.0994
CC1CC/C=C\[C@H]2OC34C=CCN(Cn5nnc6ccccc65)C(=O)[C@H]3N(CCCCCCO)C(=O)[C@@H]4C2C(=O)O1 (some centres undefined)	-0.169
CC(=O)NCCCC[C@@H]1NC(=O)[C@H]2C[C@@H](C(=O)NCCCCCCNC(=O)CS)[C@@H](c3cccc(OCCO)c3)N2C1=O	-0.0618
C[N+](C)(C)CCCC[C@@H]1NC(=O)[C@H]2C[C@@H](C(=O)NCCCCCNC(=O)CS)[C@@H](c3cccc(OCCO)c3)N2C1=O	0.0373
CC(C)NC(=O)[C@@]1(C)c2ccccc2C(=O)N(Cc2ccccc2)[C@H]1c1ccc(CO)cc1	-0.291
CCCC[C@H]1OB(O)C[C@H]2C1=C(COc1ccccc1)C[C@H]1C(=O)C=CC(=O)[C@H]12	0.316
COC(=O)[C@@]1(Cc2ccc(F)cc2)[C@H]2c3cc(C(=O)N4CCCC4)n(CCc4ccccn4)c3C[C@H]2CN1C(=O)c1ccccc1	-0.201
COC(=O)[C@@]1(Cc2ccc(OC)cc2)[C@H]2c3cc(C(=O)N4CCCC4)n(Cc4ccc(C(F)(F)F)nc4)c3C[C@H]2CN1C(=O)c1ccccc1	0.388
CC(C)[Si](C#CCCc1ccccc1)(O[C@H](c1ccccc1)c1cn(Cc2ccccc2)nn1)C(C)C	0.0401
CCCC[C@H]1C[C@@H]1[C@@H]1N(C(C)=O)[C@H](c2cccc(OC)c2)CC12CC2	-0.0645
